Source of measurements: paper PMC11314410

Let's look at some compounds and their measured IC90.
Tested on: Intracellular amastigotes of T. cruzi (Dm28c-Luc)
assay_procedure: microbe, parasite or virus in culture
Format: cell-based, Trypanosoma cruzi
condition_parameters: Trypanosoma cruzi; Dm28c-Luc in Vero cells, 72 h treatment, mean ± SD; read-out: Anti-T. cruzi Activity Intracellular Amastigotes IC90

compound	IC90
Nc1nnc(-c2cnn(-c3cccc(Br)c3)c2)s1	> 70 µM
Nc1nnc(-c2cnn(-c3ccc(Cl)c(Cl)c3)c2)s1	40.4 µM
Nc1nnc(-c2cnn(-c3cccc(Cl)c3)c2N)s1	> 70 µM
Nc1nnc(-c2cnn(-c3ccc(Cl)cc3)c2N)s1	> 70 µM
Nc1nnc(-c2cnn(-c3cccc(F)c3)c2N)s1	> 70 µM
Nc1nnc(-c2cnn(-c3cc(Cl)cc(Cl)c3)c2N)s1	> 70 µM
Nc1nnc(-c2cnn(-c3ccc([N+](=O)[O-])cc3)c2N)s1	23.2 µM
Nc1nnc(-c2cnn(-c3cc(Cl)cc(Cl)c3)c2)s1	> 70 µM
Nc1nnc(-c2cnn(-c3ccc(Br)cc3)c2)s1	> 70 µM
Nc1nnc(-c2cnn(-c3ccc(F)cc3)c2N)s1	> 70 µM
Nc1nnc(-c2cnn(-c3ccc(Cl)cc3Cl)c2N)s1	> 70 µM
Nc1nnc(-c2cnn(-c3cccc(F)c3)c2)s1	> 70 µM
Nc1nnc(-c2cnn(-c3ccccc3)c2)s1	> 70 µM
Nc1nnc(-c2cnn(-c3ccc(Cl)cc3)c2)s1	> 70 µM
Nc1nnc(-c2cnn(-c3ccc(Br)cc3)c2N)s1	> 70 µM
Nc1nnc(-c2cnn(-c3ccccc3)c2N)s1	> 70 µM
O=C(Cn1ccnc1[N+](=O)[O-])NCc1ccccc1 [Bz, benznidazole, reference compound]	11.5 µM
Nc1nnc(-c2cnn(-c3ccc(Cl)c(Cl)c3)c2N)s1	58.8 µM
Nc1nnc(-c2cnn(-c3ccc(F)cc3)c2)s1	> 70 µM
Nc1nnc(-c2cnn(-c3ccc([N+](=O)[O-])cc3)c2)s1	> 70 µM
Nc1nnc(-c2cnn(-c3cccc(Br)c3)c2N)s1	> 70 µM
Nc1nnc(-c2cnn(-c3ccc(Cl)cc3Cl)c2)s1	42.3 µM
COc1ccc(-n2ncc(-c3nnc(N)s3)c2N)cc1	> 70 µM
Nc1nnc(-c2cnn(-c3cccc(Cl)c3)c2)s1	> 70 µM
COc1ccc(-n2cc(-c3nnc(N)s3)cn2)cc1	> 70 µM
